Origin of values: ChEMBL document CHEMBL2384951

- system under test: Delta-type opioid receptor (Mus musculus)
- protocol details: Displacement of [3H]DPDPE from delta opioid receptor in mouse whole brain devoid of cerebellum
pKi: −log10 of the molar value.
Entry flag: yes if pKi reaches 9; no if it does not.

entry_smiles=O=C(C[C@@H]1N[C@@]23CC[C@]1(O)[C@@H]1Oc4c(O)ccc5c4[C@]12CCN(CC1CC1)[C@@H]3C5)NCc1ccccc1 label=yes
entry_smiles=O=C(Nc1ccccc1)[C@H]1N(CC2CC2)[C@@]23CC[C@]1(O)[C@@H]1Oc4c(O)ccc5c4[C@@]12CCN(CC1CC1)[C@@H]3C5 label=no
entry_smiles=O=C(C[C@@H]1N(CC2CC2)[C@@]23CC[C@]1(O)[C@@H]1Oc4c(O)ccc5c4[C@]12CCN(CC1CC1)[C@@H]3C5)NCc1ccccc1 label=yes
entry_smiles=CN1[C@@H](CC(=O)Nc2ccccc2)[C@]2(O)CC[C@]13[C@H]1Cc4ccc(O)c5c4[C@]3(CCN1CC1CC1)[C@H]2O5 label=yes
entry_smiles=CN1[C@@H](CC(=O)NCc2ccccc2)[C@]2(O)CC[C@]13[C@H]1Cc4ccc(O)c5c4[C@]3(CCN1CC1CC1)[C@H]2O5 label=yes
entry_smiles=O=C(Nc1ccccc1)[C@@H]1N(Cc2ccccc2)[C@@]23CC[C@]1(O)[C@@H]1Oc4c(O)ccc5c4[C@@]12CCN(CC1CC1)[C@@H]3C5 label=no
entry_smiles=CC(=O)N1[C@@H](C(=O)Nc2ccccc2)[C@]2(O)CC[C@]13[C@H]1Cc4ccc(O)c5c4[C@@]3(CCN1CC1CC1)[C@H]2O5 label=no
entry_smiles=CC(=O)N1[C@@H](CC(=O)NCc2ccccc2)[C@]2(O)CC[C@]13[C@H]1Cc4ccc(O)c5c4[C@]3(CCN1CC1CC1)[C@H]2O5 label=yes
entry_smiles=CN1[C@H](C(=O)Nc2ccccc2)[C@]2(O)CC[C@]13[C@H]1Cc4ccc(O)c5c4[C@@]3(CCN1CC1CC1)[C@H]2O5 label=yes
entry_smiles=O=C(C[C@@H]1N[C@@]23CC[C@]1(O)[C@@H]1Oc4c(O)ccc5c4[C@]12CCN(CC1CC1)[C@@H]3C5)Nc1ccccc1 label=yes

====

Reported pKi values for the following molecules.
- system under test: Kappa-type opioid receptor (Cavia porcellus, UniProt P41144)
- Sequence (P41144 whole entry): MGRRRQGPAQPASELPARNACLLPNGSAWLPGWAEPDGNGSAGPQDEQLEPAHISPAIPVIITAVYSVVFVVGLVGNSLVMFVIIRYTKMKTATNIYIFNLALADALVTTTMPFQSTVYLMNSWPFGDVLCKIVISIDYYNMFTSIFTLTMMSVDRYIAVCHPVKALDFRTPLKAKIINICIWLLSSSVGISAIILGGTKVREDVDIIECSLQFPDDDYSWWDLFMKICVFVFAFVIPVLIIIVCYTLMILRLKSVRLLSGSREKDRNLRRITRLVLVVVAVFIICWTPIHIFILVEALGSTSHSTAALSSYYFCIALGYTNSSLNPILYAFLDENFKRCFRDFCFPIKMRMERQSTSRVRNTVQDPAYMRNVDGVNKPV
pKi: −log10 of the molar value.
property measured: pKi

entry_smiles=O=C(C[C@@H]1N(CC2CC2)[C@@]23CC[C@]1(O)[C@@H]1Oc4c(O)ccc5c4[C@]12CCN(CC1CC1)[C@@H]3C5)Nc1ccccc1 quantitative_readout=8.85
entry_smiles=O=C(Nc1ccccc1)[C@H]1O[C@@]23CC[C@]1(O)[C@@H]1Oc4c(O)ccc5c4[C@@]12CCN(CC1CC1)[C@@H]3C5 quantitative_readout=9.92
entry_smiles=CC(=O)N1[C@@H](CC(=O)Nc2ccccc2)[C@]2(O)CC[C@]13[C@H]1Cc4ccc(O)c5c4[C@]3(CCN1CC1CC1)[C@H]2O5 quantitative_readout=9.03
entry_smiles=CC(=O)N1[C@H](CC(=O)Nc2ccccc2)[C@]2(O)CC[C@]13[C@H]1Cc4ccc(O)c5c4[C@]3(CCN1CC1CC1)[C@H]2O5 quantitative_readout=8.22
entry_smiles=O=C(C[C@H]1N[C@@]23CC[C@]1(O)[C@@H]1Oc4c(O)ccc5c4[C@]12CCN(CC1CC1)[C@@H]3C5)Nc1ccccc1 quantitative_readout=8.99
entry_smiles=O=C(C[C@H]1N(CC2CC2)[C@@]23CC[C@]1(O)[C@@H]1Oc4c(O)ccc5c4[C@]12CCN(CC1CC1)[C@@H]3C5)Nc1ccccc1 quantitative_readout=9.33
entry_smiles=O=C(Nc1ccccc1)[C@H]1N(CC2CC2)[C@@]23CC[C@]1(O)[C@@H]1Oc4c(O)ccc5c4[C@@]12CCN(CC1CC1)[C@@H]3C5 quantitative_readout=8.40
entry_smiles=O=C(Nc1ccccc1)[C@H]1N[C@@]23CC[C@]1(O)[C@@H]1Oc4c(O)ccc5c4[C@@]12CCN(CC1CC1)[C@@H]3C5 quantitative_readout=9.66
entry_smiles=CN1[C@H](CC(=O)Nc2ccccc2)[C@]2(O)CC[C@]13[C@H]1Cc4ccc(O)c5c4[C@]3(CCN1CC1CC1)[C@H]2O5 quantitative_readout=9.64
entry_smiles=O=C(Nc1ccccc1)[C@H]1N(CC(F)(F)F)[C@@]23CC[C@]1(O)[C@@H]1Oc4c(O)ccc5c4[C@@]12CCN(CC1CC1)[C@@H]3C5 quantitative_readout=8.16
entry_smiles=O=C(C[C@@H]1N[C@@]23CC[C@]1(O)[C@@H]1Oc4c(O)ccc5c4[C@]12CCN(CC1CC1)[C@@H]3C5)NCc1ccccc1 quantitative_readout=10.43
entry_smiles=O=C(C[C@@H]1N(CC2CC2)[C@@]23CC[C@]1(O)[C@@H]1Oc4c(O)ccc5c4[C@]12CCN(CC1CC1)[C@@H]3C5)NCc1ccccc1 quantitative_readout=9.52
entry_smiles=CN1[C@H](CC(=O)NCc2ccccc2)[C@]2(O)CC[C@]13[C@H]1Cc4ccc(O)c5c4[C@]3(CCN1CC1CC1)[C@H]2O5 quantitative_readout=9.82
entry_smiles=O=C(Nc1ccccc1)[C@@H]1N(CC2CC2)[C@@]23CC[C@]1(O)[C@@H]1Oc4c(O)ccc5c4[C@@]12CCN(CC1CC1)[C@@H]3C5 quantitative_readout=8.73
entry_smiles=O=C(NCc1ccccc1)[C@H]1N[C@@]23CC[C@]1(O)[C@@H]1Oc4c(O)ccc5c4[C@@]12CCN(CC1CC1)[C@@H]3C5 quantitative_readout=9.64

====

- system under test: Delta-type opioid receptor (Mus musculus, UniProt P32300)
- Sequence (P32300 whole entry): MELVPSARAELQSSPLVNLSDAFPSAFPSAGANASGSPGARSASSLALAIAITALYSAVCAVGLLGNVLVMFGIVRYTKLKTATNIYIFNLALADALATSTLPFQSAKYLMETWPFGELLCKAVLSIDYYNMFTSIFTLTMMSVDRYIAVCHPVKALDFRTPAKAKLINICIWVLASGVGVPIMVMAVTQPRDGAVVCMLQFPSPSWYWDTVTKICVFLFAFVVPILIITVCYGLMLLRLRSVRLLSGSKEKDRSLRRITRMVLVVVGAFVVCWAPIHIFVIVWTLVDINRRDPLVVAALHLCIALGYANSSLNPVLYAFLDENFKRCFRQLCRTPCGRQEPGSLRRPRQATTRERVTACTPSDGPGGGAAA
- protocol details: Displacement of [3H]DPDPE from delta opioid receptor in mouse whole brain devoid of cerebellum
property measured: Ki

entry_smiles=O=C(C[C@H]1N(CC2CC2)[C@@]23CC[C@]1(O)[C@@H]1Oc4c(O)ccc5c4[C@]12CCN(CC1CC1)[C@@H]3C5)NCc1ccccc1 result="1.47 nM"
entry_smiles=O=C(C[C@H]1N[C@@]23CC[C@]1(O)[C@@H]1Oc4c(O)ccc5c4[C@]12CCN(CC1CC1)[C@@H]3C5)NCc1ccccc1 result="1.12 nM"
entry_smiles=CN1[C@H](CC(=O)NCc2ccccc2)[C@]2(O)CC[C@]13[C@H]1Cc4ccc(O)c5c4[C@]3(CCN1CC1CC1)[C@H]2O5 result="0.54 nM"
